# target_desc: RORgT (Homo sapiens, UniProt P51449)
# Construct: Gal4 (fusion partner); expressed in transfected cells; host or cells: engineered Jurkat cells (Jurkat pEx/Gal/hRORγ CLBD/HYG pG5luc/blast)
# Sequence (P51449 267-516): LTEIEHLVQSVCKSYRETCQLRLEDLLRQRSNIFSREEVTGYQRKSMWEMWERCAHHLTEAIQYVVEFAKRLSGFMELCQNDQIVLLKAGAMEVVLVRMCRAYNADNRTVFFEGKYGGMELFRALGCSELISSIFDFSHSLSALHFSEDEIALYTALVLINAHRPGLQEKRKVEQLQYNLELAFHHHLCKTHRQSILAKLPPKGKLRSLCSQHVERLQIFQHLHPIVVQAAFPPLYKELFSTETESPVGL
# test_description: RORgT Gal4 Luciferase Reporter Gene Assay
# Format: cell-based
# settings: engineered Jurkat cells overexpressing RORgT (LBD or full length) with Gal4 Luc reporter; 18 hours at 37° C.; 40 μM to 0.67 nM; read-out: RORg_GAL4 EC50
Would you mind telling me the reported EC50 of each entry?
One number for each entry, in nM.

Worked examples, 3 molecules total:
CC1(c2cc(F)cc(Oc3c(Cl)cc(NC(=O)CC4CCN(C(=O)C(F)(F)F)CC4)cc3Cl)c2)CC1
12
COc1ccc(Oc2c(Cl)cc(NC(=O)C[C@H]3CCCN(S(=O)(=O)C(C)C)C3)cc2Cl)cc1C(C)C
149
COc1ccc(Oc2c(Cl)cc(NC(=O)CN3CCC[C@@H](NS(=O)(=O)C4CC4)C3)cc2Cl)cc1C(C)C
424

Fill in EC50 for each of the 5 molecules listed.
1. COc1ccc(Oc2c(Cl)ccc(C(=O)N3CCc4cc(N)ccc4C3)c2Cl)cc1C(C)C
2. COc1ccc(Oc2c(Cl)ccc(C(=O)N(C)CC3CCN(S(C)(=O)=O)CC3)c2Cl)cc1C(C)C
3. COc1ccc(Oc2c(Cl)cc(NS(=O)(=O)C3CC3)cc2Cl)cc1C(C)C
4. COc1ccc(Oc2c(Cl)cc(NC(=O)Cc3cccnc3)cc2Cl)cc1C(C)(C)O
5. COc1ccc(Oc2c(Cl)ccc(CNS(=O)(=O)C3CCN(S(N)(=O)=O)CC3)c2Cl)cc1C(C)C

Data returned:
1: 766; 2: 15; 3: 1080; 4: 722; 5: 20
